B1: HDAC6 (parent)
chain: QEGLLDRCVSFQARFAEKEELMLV

Variants of: B1
Test: protein stability index of a GFP-peptide fusion (GPS, HEK-293T) (PSI 1-6); higher = more stable;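 note: lentivirally expressed fusions sorted by FACS into six bins by GFP to DsRed ratio, PSI derived from sequencing read proportions per bin multiplied by bin number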
Conditions: c terminus: a fixed tail appended
# protein stability index >= 2 gives YES, anything below gives NO

    variant_name  class_label
 0          K18D           NO
 1          E20Q           NO
 2           G3W           NO
 3          L23G          YES
 4          A16K          YES
 5           V9W           NO
 6          Q12P          YES
 7          F15M          YES
 8          E17C           NO
 9          A16Y           NO
10           E2T          YES
11          A16I          YES
12           Q1H           NO
13           C8L           NO
14           E2N           NO
15           L4C          YES
16          E20F          YES
17           L5N          YES
18           D6T           NO
19          L23H          YES
20          E19V           NO
21           C8I           NO
22          M22E          YES
23           L5D          YES
24          F11T          YES
25           G3D          YES
26          S10L           NO
27          M22R          YES
28           E2M           NO
29           Q1W           NO
30           C8G          YES
31          F11E          YES
32          R14K          YES

Origin of measurements: the supplement of paper PMC10567573
